The reported numbers originate from the supplement of paper PMC8882468.

system: HCI-015 (organoid from a triple-negative breast cancer xenograft); test: CTG-3D luminescence at 96 h relative to day-0 seeding control (ratio to day 0); higher = more growth / less cytotoxicity; PDxO 3D drug screen, 96 h, CTG-3D normalised to day-0 seeding control.; details: 12.5 pM; days in culture: 172
measurement.kind: CTG-3D luminescence at 96 h
Keep it simple and answer with nothing but the number.

Study these solved cases before continuing.
compound	CTG-3D luminescence at 96 h
CCN1CCN(Cc2ccc(Nc3ncc(F)c(-c4cc(F)c5nc(C)n(C(C)C)c5c4)n3)nc2)CC1 [abemaciclib]	2.01
COc1cccc2c1C(=O)c1c(O)c3c(c(O)c1C2=O)C[C@@](O)(C(=O)CO)C[C@@H]3O[C@H]1C[C@H](N)[C@H](O)[C@H](C)O1 [doxorubicin]	2.4
CN(Cc1cnc2nc(N)nc(N)c2n1)c1ccc(C(=O)N[C@@H](CCC(=O)O)C(=O)O)cc1 [methotrexate]	2.51
C=CC(=O)N1CCC[C@@H](n2nc(-c3ccc(Oc4ccccc4)cc3)c3c(N)ncnc32)C1 [ibrutinib]	2.54

Turning to the following compound.
Request: // fetch HCI-015 CTG-3D luminescence at 96 h for CC[C@H](NC(=O)[C@H](C)NC)C(=O)N1C[C@@H](O)C[C@H]1Cc1c(-c2[nH]c3cc(F)ccc3c2C[C@@H]2C[C@H](O)CN2C(=O)[C@H](CC)NC(=O)[C@H](C)NC)[nH]c2cc(F)ccc12 [birinapant]
Result: 2.01
